- Assay target: T1, hANGPTL4(26-148)-mFc (Homo sapiens, UniProt Q9BY76)
- T1 construct: amino acid residues 26-148 of human ANGPTL4 fused in-line to mouse IgG2a (hANGPTL4-mFc)
- T1 sequence (Q9BY76 with tags, fused parts or gaps): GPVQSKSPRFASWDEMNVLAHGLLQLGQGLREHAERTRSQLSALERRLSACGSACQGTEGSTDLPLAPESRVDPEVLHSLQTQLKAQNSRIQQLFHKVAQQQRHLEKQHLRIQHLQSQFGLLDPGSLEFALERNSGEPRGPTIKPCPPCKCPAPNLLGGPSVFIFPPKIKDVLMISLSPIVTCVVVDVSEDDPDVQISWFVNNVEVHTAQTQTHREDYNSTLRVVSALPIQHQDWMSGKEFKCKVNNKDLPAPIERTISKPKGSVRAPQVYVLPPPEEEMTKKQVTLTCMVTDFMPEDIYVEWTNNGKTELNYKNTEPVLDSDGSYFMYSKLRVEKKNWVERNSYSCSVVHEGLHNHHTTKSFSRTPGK
- Assay protocol: BIACORE, full mAb or Fab over anti-mFc captured hANGPTL4(26-148)-mFc
- Type: binding
- Particulars: pH 5.75, 25° C.
Parameter: kd (s⁻¹)
# unit: s⁻¹ | format: bare number

Data point: H1H268P Fab: Fab fragment of H1H268P prepared by papain digestion (antibody, V domains shown) VH: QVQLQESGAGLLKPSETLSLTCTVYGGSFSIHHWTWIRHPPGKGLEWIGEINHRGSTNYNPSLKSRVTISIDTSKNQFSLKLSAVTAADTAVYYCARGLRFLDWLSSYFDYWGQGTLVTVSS VL: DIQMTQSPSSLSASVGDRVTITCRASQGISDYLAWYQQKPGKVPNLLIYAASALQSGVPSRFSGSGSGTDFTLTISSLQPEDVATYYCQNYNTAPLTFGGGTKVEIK ; kd = 0.00304
